System: Streptococcus pneumoniae
Assay: Minimum inhibitory concentration against macrolide susceptible strain of Streptococcus pneumoniae (MB3957)
Format: functional
# Criterion met = MIC below 0.5 µg/mL (exclusive); Criterion not met = MIC at/above 0.5 µg/mL

- Smiles entry: "CC[C@H]1OC(=O)[C@H](C)[C@@H](O[C@H]2C[C@@](C)(OC)[C@@H](O)[C@@H](C)O2)[C@H](C)[C@@H](O[C@@H]2O[C@H](C)C[C@@H](N(C)C)[C@H]2O)[C@](C)(O)C[C@@H](C)CN(C)[C@H](C)[C@@H](O)[C@]1(C)OC"
  Tested on: "Streptococcus pneumoniae"
  Class name: "Criterion met"
- Smiles entry: "CC[C@H]1OC(=O)[C@H](C)[C@@H](O[C@H]2C[C@@](C)(OC)[C@@H](OC)[C@@H](C)O2)[C@H](C)[C@@H](O[C@@H]2O[C@H](C)C[C@@H](N(C)C)[C@H]2O)[C@](C)(O)C[C@@H](C)N(C)C[C@H](C)[C@@H](OC)[C@]1(C)OC"
  Tested on: "Streptococcus pneumoniae"
  Class name: "Criterion not met"
- Smiles entry: "CC[C@H]1OC(=O)[C@H](C)[C@@H](O[C@H]2C[C@@](C)(OC)[C@@H](OC)[C@@H](C)O2)[C@H](C)[C@@H](O[C@@H]2O[C@H](C)C[C@@H](N(C)C)[C@H]2O)[C@](C)(O)C[C@@H](C)N(C)C[C@H](C)[C@@H](OC)[C@]1(C)O"
  Tested on: "Streptococcus pneumoniae"
  Class name: "Criterion not met"
- Smiles entry: "CC[C@H]1OC(=O)[C@H](C)[C@@H](O[C@H]2C[C@@](C)(OC)[C@@H](OC)[C@@H](C)O2)[C@H](C)[C@@H](O[C@@H]2O[C@H](C)C[C@@H](N(C)C)[C@H]2O)[C@](C)(O)C[C@@H](C)CN(C)[C@H](C)[C@@H](OC)[C@]1(C)OC"
  Tested on: "Streptococcus pneumoniae"
  Class name: "Criterion not met"
- Smiles entry: "CC[C@H]1OC(=O)[C@H](C)[C@@H](O[C@H]2C[C@@](C)(OC)[C@@H](O)[C@@H](C)O2)[C@H](C)[C@@H](O[C@@H]2O[C@H](C)C[C@@H](N(C)C)[C@H]2O)[C@](C)(O)C[C@@H](C)CN(C)[C@H](C)[C@@H](OC)[C@]1(C)O"
  Tested on: "Streptococcus pneumoniae"
  Class name: "Criterion met"
- Smiles entry: "CC[C@H]1OC(=O)[C@H](C)[C@@H](O[C@H]2C[C@@](C)(OC)[C@@H](O)[C@H](C)O2)[C@H](C)[C@@H](O[C@@H]2O[C@H](C)C[C@H](N(C)C)[C@H]2O)[C@](C)(O)C[C@@H](C)CN(C)[C@H](C)[C@@H](O)[C@]1(C)O"
  Tested on: "Streptococcus pneumoniae"
  Class name: "Criterion met"
- Smiles entry: "CC[C@H]1OC(=O)[C@H](C)[C@@H](O[C@H]2C[C@@](C)(OC)[C@@H](O)[C@@H](C)O2)[C@H](C)[C@@H](O[C@@H]2O[C@H](C)C[C@@H](N(C)C)[C@H]2O)[C@](C)(O)C[C@@H](C)CN(C)[C@H](C)[C@@H](OC)[C@]1(C)OC"
  Tested on: "Streptococcus pneumoniae"
  Class name: "Criterion not met"
- Smiles entry: "CC[C@H]1OC(=O)[C@H](C)[C@@H](O[C@H]2C[C@@](C)(OC)[C@@H](OC)[C@@H](C)O2)[C@H](C)[C@@H](O[C@@H]2O[C@H](C)C[C@@H](N(C)C)[C@H]2O)[C@](C)(O)C[C@@H](C)N(C)C[C@H](C)[C@@H](O)[C@]1(C)OC"
  Tested on: "Streptococcus pneumoniae"
  Class name: "Criterion not met"
- Smiles entry: "CC[C@H]1OC(=O)[C@H](C)[C@@H](O[C@H]2C[C@@](C)(OC)[C@H](O)[C@H](C)O2)[C@H](C)[C@@H](O[C@@H]2O[C@H](C)C[C@H](N(C)C)[C@H]2O)[C@](C)(O)C[C@@H](C)N(C)C[C@H](C)[C@@H](O)[C@]1(C)O"
  Tested on: "Streptococcus pneumoniae"
  Class name: "Criterion met"

Taken from ChEMBL document CHEMBL1131642.
